experiment: Hygroscopicity test, condition 2 (humidity chamber, weight change); type: physicochemical; conditions: 30° C., 75% RH, 72 hr
assay_metric: Weight (g)

Worked cases, Weight given:
compound: CNCC(=O)O.O=C(O)C(O)C(O)C(=O)O [N-MG/L-TA = 1/1]
readout_unit: g
Weight: 0.1441

compound: CNCC(=O)O.CNCC(=O)O.O=C(O)C(O)C(O)C(=O)O (racemic) [N-MG/DL-TA = 2/1]
readout_unit: g
Weight: 0.2441

compound: CNCC(=O)O.CNCC(=O)O.O=C(O)C(O)C(O)C(=O)O [N-MG/L-TA = 2/1]
readout_unit: g
Weight: 0.1471

1: CNCC(=O)O.O=C(O)C(O)C(O)C(=O)O (racemic) [N-MG/DL-TA = 1/1]
2: CNCC(=O)O [N-MG, N-methylglycine, reference compound]
Of 1 and 2 , whose reported Weight is numerically smaller? Write down the label of the entry you select. 1

====

experiment: Hygroscopicity test of fumaric acid co-crystals under ambient conditions; assay type: physicochemical; settings: 48 hr
assay_metric: Change In Mass (%)

1: CNCC(=O)O.O=C(O)/C=C/C(=O)O
2: CNCC(=O)O.CNCC(=O)O.CNCC(=O)O.CNCC(=O)O.CNCC(=O)O.CNCC(=O)O.O=C(O)/C=C/C(=O)O
3: CNCC(=O)O.CNCC(=O)O.CNCC(=O)O.O=C(O)/C=C/C(=O)O
4: CNCC(=O)O.CNCC(=O)O.O=C(O)/C=C/C(=O)O
Arrange the items listed above so that Change In Mass (%) rises from first to last. Return value: ordered labels per request. 1, 4, 3, 2

====

experiment: Hygroscopicity test of fumaric acid co-crystals under ambient conditions; assay type: physicochemical; details: 45 hr
assay_metric: Change In Mass (%)

Worked cases, Change In Mass (%) given:
smiles: CNCC(=O)O.CNCC(=O)O.O=C(O)/C=C/C(=O)O
experimental_value: 7.08
--
smiles: CNCC(=O)O.O=C(O)/C=C/C(=O)O
experimental_value: 0.96

P: CNCC(=O)O.CNCC(=O)O.CNCC(=O)O.O=C(O)/C=C/C(=O)O
Q: CNCC(=O)O.CNCC(=O)O.CNCC(=O)O.CNCC(=O)O.CNCC(=O)O.CNCC(=O)O.O=C(O)/C=C/C(=O)O
Of P and Q , whose reported Change In Mass (%) is numerically smaller? Write down the label of the entry you select. P
